What melting point was measured for each of the following?

Look up melting point for this compound: `CCN1C(=O)CCc2cc(CNS(=O)(=O)/C=C/c3ccccc3)ccc21`
134 to 137 °C

Another compound to check: `CCN1C(=O)CCc2cc(CNS(=O)(=O)c3ccc(OC)cc3)ccc21`
147 to 150 °C

Do the same for `CCCN1C(=O)CCc2cc(CNS(=O)(=O)c3cccc4ccccc34)ccc21` please
176 to 179 °C

Also `CCCN1C(=O)CCc2cc(CNS(=O)(=O)c3ccc(F)cc3F)ccc21` ?
141 to 144 °C

And the next one, `CCCN1C(=O)CCc2cc(CNS(=O)(=O)c3ccc(OC(C)C)cc3)ccc21` ?
138 to 139 °C

What about `CCCN1C(=O)CCc2cc(CNS(=O)(=O)/C=C/c3cccc(Cl)c3)ccc21` ?
129 to 133 °C

For `CCCN1C(=O)CCc2cc(CNS(=O)(=O)/C=C/c3ccccc3)ccc21` then?
165 to 168 °C

Moving on to `CCN1C(=O)CCc2cc(CNS(=O)(=O)c3ccccc3)ccc21`
114 to 124 °C
